Where do these numbers come from? They come from patent US20230263822A1.

Test: Tolerability in CD1 mice: hematology assays (Example 43)
Format: in vivo
Conditions: 50 mg/kg s.c. twice per week for 6 weeks, blood
Strand notation (5' to 3'): a small letter for the sugar, then the base; units joined by * are phosphorothioate-linked, units joined directly phosphodiester-linked; [ ] holds rarer units or linkages, { } end groups; capitals alone tell only the bases. e = 2'-O-(2-methoxyethyl) (MOE); [5mC] = 5-methylcytosine; d = 2'-deoxy (DNA)
MEASUREMENT_TYPE: lymphocytes (%)

substance="ISIS 449711: 3-8-3, 4-8-4, 2-10-2, 3-10-3 or 4-10-4 MOE microwalk gapmer (Table 46) (antisense eA*e[5mC]*dA*dG*dT*dT*dT*d[5mC]*dT*dG*dG*d[5mC]*eA*eG)" measured_result=79
substance="ISIS 449710: 3-8-3, 4-8-4, 2-10-2, 3-10-3 or 4-10-4 MOE microwalk gapmer (Table 46) (antisense e[5mC]*eA*e[5mC]*dA*dG*dT*dT*dT*d[5mC]*dT*dG*dG*d[5mC]*eA*eG*eG)" measured_result=81
substance="ISIS 449709: 3-8-3, 4-8-4, 2-10-2, 3-10-3 or 4-10-4 MOE microwalk gapmer (Table 46) (antisense eG*e[5mC]*eA*e[5mC]*dA*dG*dT*dT*dT*d[5mC]*dT*dG*dG*d[5mC]*eA*eG*eG*e[5mC])" measured_result=76
substance="ISIS 449707: 3-8-3, 4-8-4, 2-10-2, 3-10-3 or 4-10-4 MOE microwalk gapmer (Table 46) (antisense e[5mC]*eA*e[5mC]*eA*dG*dT*dT*dT*d[5mC]*dT*dG*dG*e[5mC]*eA*eG*eG)" measured_result=85
substance="ISIS 449708: 3-8-3, 4-8-4, 2-10-2, 3-10-3 or 4-10-4 MOE microwalk gapmer (Table 46) (antisense eA*e[5mC]*eA*dG*dT*dT*dT*d[5mC]*dT*dG*dG*e[5mC]*eA*eG)" measured_result=77

---

Test system: blood coagulation
Assay: PT and aPTT assay in cynomolgus monkeys (Example 45)
Format: in vivo
Conditions: day 43; escalating dose regimen; platelet poor plasma
MEASUREMENT_TYPE: aPTT ratio (INR)

substance="ISIS 416850: MOE gapmer, nucleobases 1275 to 1318 of SEQ ID NO: 1 (Table 8) (antisense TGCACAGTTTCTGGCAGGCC; MOE gapmer, wing and gap sizes not given here)" experimental_target="blood coagulation" measurement_type="aPTT ratio (INR)" measured_result=1.17
substance="ISIS 416858: MOE gapmer, nucleobases 1275 to 1318 of SEQ ID NO: 1 (Table 8) (antisense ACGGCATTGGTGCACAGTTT; MOE gapmer, wing and gap sizes not given here)" experimental_target="blood coagulation" measurement_type="aPTT ratio (INR)" measured_result=1.28
substance="ISIS 416838: MOE gapmer, nucleobases 1018 to 1042 of SEQ ID NO: 1 (Table 6) (antisense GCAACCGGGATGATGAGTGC; MOE gapmer, wing and gap sizes not given here)" experimental_target="blood coagulation" measurement_type="aPTT ratio (INR)" measured_result=1.18
substance="ISIS 416864: MOE gapmer, nucleobases 1275 to 1318 of SEQ ID NO: 1 (Table 8) (antisense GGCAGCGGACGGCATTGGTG; MOE gapmer, wing and gap sizes not given here)" experimental_target="blood coagulation" measurement_type="aPTT ratio (INR)" measured_result=1.07
substance="ISIS 417002: MOE gapmer, nucleobases 1275 to 1318 of SEQ ID NO: 1 (Table 8) (antisense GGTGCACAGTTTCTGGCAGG; MOE gapmer, wing and gap sizes not given here)" experimental_target="blood coagulation" measurement_type="aPTT ratio (INR)" measured_result=1.06
